Values compiled from ChEMBL document CHEMBL1145917.

// pEC50 lookup, one value per entry
experiment: Loss of swimming behavior in Xenopus laevis tadpole.; format: functional, frog; conditions: Amphibia, read-out: ED50 (the source's name)
pEC50: −log10 of the molar value.
METRIC_NAME: pEC50

>>> assay_value("C[C@]12CC[C@@H](O)C[C@H]1CC[C@H]1[C@@H]3CCC4CCC(=O)C[C@@]43CC[C@@H]12 (stereo partly specified)")
5.45
>>> assay_value("C[C@]12CC[C@@H](O)C[C@H]1CC[C@@H]1[C@@H]2CC[C@]23C(=O)C=CC[C@H]2CC[C@@H]13")
6.00
>>> assay_value("CC(=O)[C@H]1CC[C@H]2[C@@H]3CC[C@H]4C[C@H](O)CC[C@]4(C)[C@H]3CC[C@]12C")
5.26
>>> assay_value("C[C@]12CC[C@@H](O)C[C@H]1CC[C@H]1[C@@H]3CCC4C=CC(=O)C[C@@]43CC[C@@H]12 (stereo partly specified)")
5.57
>>> assay_value("C[C@]12CC[C@@H](O)C[C@H]1CC[C@@H]1[C@@H]2CC[C@]23C=CC(=O)C[C@H]2CC[C@@H]13")
5.26
>>> assay_value("CC(=O)[C@H]1CC[C@H]2[C@@H]3CC[C@@H]4C[C@H](O)CC[C@]4(C)[C@H]3CC[C@]12C")
6.52
>>> assay_value("C[C@]12CC[C@@H](O)C[C@H]1CC[C@H]1[C@@H]3CCC4C(=O)CCC[C@@]43CC[C@@H]12 (stereo partly specified)")
5.26
>>> assay_value("C[C@]12CC[C@@H](O)C[C@@H]1CC[C@H]1[C@@H]3CCC4C(=O)CCC[C@@]43CC[C@@H]12 (stereo partly specified)")
5.26
>>> assay_value("C[C@]12CC[C@@H](O)C[C@@H]1CC[C@@H]1[C@@H]2CC[C@]23C(=O)C=CC[C@H]2CC[C@@H]13")
5.58
>>> assay_value("C[C@]12CC[C@@H](O)C[C@@H]1CC[C@@H]1[C@@H]2CC[C@]23C=CC(=O)C[C@H]2CC[C@@H]13")
5.26
>>> assay_value("C[C@]12CC[C@@H](O)C[C@@H]1CC[C@H]1[C@@H]3CCC4C=CC(=O)C[C@@]43CC[C@@H]12 (stereo partly specified)")
5.00
>>> assay_value("C[C@]12CC[C@@H](O)C[C@@H]1CC[C@H]1[C@@H]3CCC4CCC(=O)C[C@@]43CC[C@@H]12 (stereo partly specified)")
5.45
>>> assay_value("C[C@]12CC[C@@H](O)C[C@H]1CC[C@H]1[C@@H]3CCC4CC(=O)CC[C@@]43CC[C@@H]12 (stereo partly specified)")
5.03
>>> assay_value("C[C@]12CC[C@@H](O)C[C@H]1CC[C@H]1C3CCC4C(=O)C=CC[C@@]43CC[C@@H]12 (single isomer, unassigned)")
5.05
>>> assay_value("C[C@]12CC[C@@H](O)C[C@@H]1CC[C@@H]1[C@@H]2CC[C@]23C(=O)CCCC2CC[C@@H]13 (stereo partly specified)")
5.76
>>> assay_value("C[C@]12CC[C@@H](O)C[C@H]1CC[C@@H]1[C@@H]2CC[C@]23C(=O)CCCC2CC[C@@H]13 (stereo partly specified)")
6.05

###

biological target: GABA-A receptor; alpha-1/beta-2/gamma-2 (Rattus norvegicus) (UniProt P18508+P62813+P63138); assay: In vitro current effect against rat GABA receptor alpha-1-beta-2-gamma-2 subunits expressed in Xenopus laevis oocytes at 1 uM (ratio +/- compound); type: cell-based; details: Oocyte
// Ratio lookup, one value per entry
METRIC_NAME: Ratio

>>> assay_value("C[C@]12CC[C@@H](O)C[C@@H]1CC[C@H]1[C@@H]3CCC4C(=O)CCC[C@@]43CC[C@@H]12 (stereo partly drawn)")
1.44
>>> assay_value("C[C@]12CC[C@@H](O)C[C@@H]1CC[C@H]1C3CCC4C(=O)C=CC[C@@]43CC[C@@H]12 (single isomer, unassigned)")
5.87
>>> assay_value("C[C@]12CC[C@@H](O)C[C@@H]1CC[C@H]1[C@@H]3CCC4C=CC(=O)C[C@@]43CC[C@@H]12 (stereo partly drawn)")
5.53
>>> assay_value("C[C@]12CC[C@@H](O)C[C@H]1CC[C@H]1[C@@H]3CCC4C=CC(=O)C[C@@]43CC[C@@H]12 (stereo partly drawn)")
1.83
>>> assay_value("C[C@]12CC[C@@H](O)C[C@@H]1CC[C@@H]1[C@@H]2CC[C@]23C(=O)CCCC2CC[C@@H]13 (stereo partly drawn)")
3.05
>>> assay_value("CC(=O)[C@H]1CC[C@H]2[C@@H]3CC[C@H]4C[C@H](O)CC[C@]4(C)[C@H]3CC[C@]12C")
3.89
>>> assay_value("C[C@]12CC[C@@H](O)C[C@H]1CC[C@H]1[C@@H]3CCC4C(=O)CCC[C@@]43CC[C@@H]12 (stereo partly drawn)")
1.12
>>> assay_value("C[C@]12CC[C@@H](O)C[C@H]1CC[C@H]1C3CCC4C(=O)C=CC[C@@]43CC[C@@H]12 (single isomer, unassigned)")
1.17
>>> assay_value("CC(=O)[C@H]1CC[C@H]2[C@@H]3CC[C@@H]4C[C@H](O)CC[C@]4(C)[C@H]3CC[C@]12C")
2.82
>>> assay_value("C[C@]12CC[C@@H](O)C[C@@H]1CC[C@H]1[C@@H]3CCC4CCC(=O)C[C@@]43CC[C@@H]12 (stereo partly drawn)")
1.64
>>> assay_value("C[C@]12CC[C@@H](O)C[C@@H]1CC[C@@H]1[C@@H]2CC[C@]23C(=O)C=CC[C@H]2CC[C@@H]13")
8.33
>>> assay_value("C[C@]12CC[C@@H](O)C[C@H]1CC[C@H]1[C@@H]3CCC4CCC(=O)C[C@@]43CC[C@@H]12 (stereo partly drawn)")
1.03
>>> assay_value("C[C@]12CC[C@@H](O)C[C@H]1CC[C@@H]1[C@@H]2CC[C@]23C=CC(=O)C[C@H]2CC[C@@H]13")
1.8
>>> assay_value("C[C@]12CC[C@@H](O)C[C@H]1CC[C@@H]1[C@@H]2CC[C@]23C(=O)CCCC2CC[C@@H]13 (stereo partly drawn)")
3.45
>>> assay_value("C[C@]12CC[C@@H](O)C[C@H]1CC[C@@H]1[C@@H]2CC[C@]23C(=O)C=CC[C@H]2CC[C@@H]13")
3.15
>>> assay_value("C[C@]12CC[C@@H](O)C[C@H]1CC[C@H]1[C@@H]3CCC4CC(=O)CC[C@@]43CC[C@@H]12 (stereo partly drawn)")
1.11
>>> assay_value("C[C@]12CC[C@@H](O)C[C@@H]1CC[C@H]1[C@@H]3CCC4CC(=O)CC[C@@]43CC[C@@H]12 (stereo partly drawn)")
1.61
>>> assay_value("C[C@]12CC[C@@H](O)C[C@@H]1CC[C@@H]1[C@@H]2CC[C@]23C=CC(=O)C[C@H]2CC[C@@H]13")
1.54
